Target: BIRC3 BIR3 (Homo sapiens, UniProt Q13489)
Sequence (Q13489 236-360): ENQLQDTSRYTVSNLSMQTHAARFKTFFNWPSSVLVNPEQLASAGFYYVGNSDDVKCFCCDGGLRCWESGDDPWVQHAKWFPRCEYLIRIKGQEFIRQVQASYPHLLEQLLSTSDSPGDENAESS
Test: NanoBRET cellular target engagement, single domain BIRC3 BIR3
Label criterion met when EC50 < 5 nM; otherwise criterion not met.

Consider the following illustrative entries.
CN[C@@H](C)C(=O)N[C@H]1CN(C(=O)CC(C)C)CC[C@H]2CC[C@@H](C(=O)NC(c3ccccc3)c3ccccc3)N2C1=O : criterion not met
CN[C@@H](C)C(=O)N[C@H](C(=O)N1CCC[C@H]1C(=O)N[C@@H]1CCCc2ccccc21)C1CCCCC1 : criterion met
CC[C@H](NC(=O)[C@H](C)NC)C(=O)N1C[C@@H](O)C[C@H]1Cc1c(-c2[nH]c3cc(F)ccc3c2C[C@@H]2C[C@H](O)CN2C(=O)[C@H](CC)NC(=O)[C@H](C)NC)[nH]c2cc(F)ccc12 : criterion not met
CN[C@@H](C)C(=O)N[C@H](C(=O)N1CCC[C@H]1C(=O)Nc1sc(-c2ncco2)nc1-c1ccccc1)C1CCCCC1 : criterion not met

stdin: API: query returns whether the molecule falls strictly under 5 nM in EC50. Query: CN[C@@H](C)C(=O)N[C@H](C(=O)N1CCC[C@H]1C(=O)N[C@H]1c2ccccc2C[C@H]1OCC#CC#CCO[C@@H]1Cc2ccccc2[C@@H]1NC(=O)[C@@H]1CCCN1C(=O)[C@@H](NC(=O)[C@H](C)NC)C1CCCCC1)C1CCCCC1
stdout: criterion met
